// provenance: paper PMC12037037

STUDY_TARGET: wild type human 5-HT2A receptor (psychLight2, PSYLI2 cells) (Homo sapiens, UniProt P28223)
Sequence (P28223 with tags, fused parts or gaps, one chain of several): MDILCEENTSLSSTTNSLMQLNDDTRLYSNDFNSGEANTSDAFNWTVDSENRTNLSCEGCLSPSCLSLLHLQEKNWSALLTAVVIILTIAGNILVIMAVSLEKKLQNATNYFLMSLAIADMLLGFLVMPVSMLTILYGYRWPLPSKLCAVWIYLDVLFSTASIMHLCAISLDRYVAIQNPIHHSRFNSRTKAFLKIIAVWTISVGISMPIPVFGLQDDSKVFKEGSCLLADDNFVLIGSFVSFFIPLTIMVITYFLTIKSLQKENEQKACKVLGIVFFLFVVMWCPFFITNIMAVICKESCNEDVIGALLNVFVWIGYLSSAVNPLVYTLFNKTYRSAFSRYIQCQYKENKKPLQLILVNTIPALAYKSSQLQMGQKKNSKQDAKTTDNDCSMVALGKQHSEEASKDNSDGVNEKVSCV
PROTOCOL_SUMMARY: PsychLight assay, wild type
ASSAY_METRIC: EC50 (nM)
Report the value in nM with no unit label.

The reported EC50 of the compound CCN(CC)C(=O)[C@@H]1C=C2c3cccc4ccn(c34)C[C@H]2N(C)C1 [(+)-JRT] was 90

----------
STUDY_TARGET: psychLight S242A^5.46 (murinized variant) (Homo sapiens, UniProt P28223, S242A)
Sequence (P28223 with tags, fused parts or gaps S242A): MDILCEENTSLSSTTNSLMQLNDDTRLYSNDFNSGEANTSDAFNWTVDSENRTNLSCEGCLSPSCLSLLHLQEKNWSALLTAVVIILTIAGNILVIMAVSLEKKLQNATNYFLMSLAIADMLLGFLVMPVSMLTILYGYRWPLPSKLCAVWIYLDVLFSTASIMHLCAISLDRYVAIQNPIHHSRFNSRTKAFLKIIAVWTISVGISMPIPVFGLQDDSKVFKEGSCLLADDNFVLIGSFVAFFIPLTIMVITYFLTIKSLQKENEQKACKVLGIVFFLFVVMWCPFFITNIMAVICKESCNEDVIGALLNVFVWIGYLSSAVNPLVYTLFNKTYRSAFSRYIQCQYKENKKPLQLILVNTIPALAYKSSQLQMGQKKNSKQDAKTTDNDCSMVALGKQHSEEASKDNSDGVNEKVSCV
Sequence (P42212 with tags, fused parts or gaps partner): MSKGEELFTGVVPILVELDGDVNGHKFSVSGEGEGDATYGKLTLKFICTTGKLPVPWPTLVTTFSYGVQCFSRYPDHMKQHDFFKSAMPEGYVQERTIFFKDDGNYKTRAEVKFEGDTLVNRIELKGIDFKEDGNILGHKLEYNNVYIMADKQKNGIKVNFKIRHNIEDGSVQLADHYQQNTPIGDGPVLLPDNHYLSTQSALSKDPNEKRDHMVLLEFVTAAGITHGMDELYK
PROTOCOL_SUMMARY: PsychLight assay, S242A^5.46 mutant
Format: cell-based
SETTINGS: psychLight (S242A^5.46): EC50, agonist mode
ASSAY_METRIC: pEC50
In simple prose, pEC50 is minus the logarithm base ten of a concentration in moles per litre.

So, CCN(CC)C(=O)[C@@H]1C=C2c3cccc4ccn(c34)C[C@H]2N(C)C1 [(+)-JRT] ? Its pEC50 was 7.41

----------
STUDY_TARGET: 5-HT2A receptors (Gq activation) (Homo sapiens)
Construct: expressed in transfected cells; host or cells: HEK293T (transient)
Sequence (P28223 whole entry): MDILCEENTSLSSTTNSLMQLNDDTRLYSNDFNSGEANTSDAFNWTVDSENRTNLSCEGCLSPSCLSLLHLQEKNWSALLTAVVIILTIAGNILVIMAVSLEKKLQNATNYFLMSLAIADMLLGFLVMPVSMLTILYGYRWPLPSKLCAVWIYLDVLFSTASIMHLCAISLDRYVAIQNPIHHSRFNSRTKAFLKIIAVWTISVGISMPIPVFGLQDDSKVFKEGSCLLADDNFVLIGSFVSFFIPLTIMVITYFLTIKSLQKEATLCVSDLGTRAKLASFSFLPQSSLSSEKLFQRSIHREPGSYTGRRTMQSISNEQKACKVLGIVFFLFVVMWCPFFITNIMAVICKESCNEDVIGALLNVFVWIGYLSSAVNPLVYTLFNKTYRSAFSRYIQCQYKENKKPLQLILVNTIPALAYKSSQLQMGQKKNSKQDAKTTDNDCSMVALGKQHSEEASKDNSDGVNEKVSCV
PROTOCOL_SUMMARY: BRET-based assay of Gq activation
Format: cell-based
SETTINGS: Gq Activation: EC50, antagonist mode, cotreated with 10 μM serotonin (5-HT + compound)
ASSAY_METRIC: pEC50
Note: pEC50 values are expressed as the negative base-10 logarithm of concentration in M.

Field pEC50 (entry CCN(CC)C(=O)[C@@H]1C=C2c3cccc4ccn(c34)C[C@H]2N(C)C1 [(+)-JRT] ) reads 6.03

----------
STUDY_TARGET: psychLight S242A^5.46 (murinized variant) (Homo sapiens, UniProt P28223, S242A)
PROTOCOL_SUMMARY: PsychLight assay, S242A^5.46 mutant
Type: cell-based
SETTINGS: psychLight (S242A^5.46): EC50, antagonist mode, cotreated with 10 μM serotonin (5-HT + compound)
ASSAY_METRIC: pEC50
Note on pEC50: it is the negative log10 of concentration, concentration in mol/L.

The measured pEC50 that CCN(CC)C(=O)[C@@H]1C=C2c3cccc4ccn(c34)C[C@H]2N(C)C1 [(+)-JRT] showed for psychLight S242A^5.46 (murinized variant) (Homo sapiens, UniProt P28223, S242A) is 6.33

----------
STUDY_TARGET: 5-HT2A receptors (Gq activation) (Homo sapiens)
Construct: expressed in transfected cells; host or cells: HEK293T (transient)
PROTOCOL_SUMMARY: BRET-based assay of Gq activation
Type: cell-based
SETTINGS: Gq Activation: EC50, agonist mode
ASSAY_METRIC: pEC50
Hey, just a heads up that pEC50 is the negative log base 10 of the concentration in molar.

CCN(CC)C(=O)[C@@H]1C=C2c3cccc4ccn(c34)C[C@H]2N(C)C1 [(+)-JRT] tested on 5-HT2A receptors (Gq activation) (Homo sapiens) gave pEC50: 9.40
